tested-system: Ferrochelatase, mitochondrial (Homo sapiens) (UniProt P22830)
Sequence (P22830 whole entry, looked up): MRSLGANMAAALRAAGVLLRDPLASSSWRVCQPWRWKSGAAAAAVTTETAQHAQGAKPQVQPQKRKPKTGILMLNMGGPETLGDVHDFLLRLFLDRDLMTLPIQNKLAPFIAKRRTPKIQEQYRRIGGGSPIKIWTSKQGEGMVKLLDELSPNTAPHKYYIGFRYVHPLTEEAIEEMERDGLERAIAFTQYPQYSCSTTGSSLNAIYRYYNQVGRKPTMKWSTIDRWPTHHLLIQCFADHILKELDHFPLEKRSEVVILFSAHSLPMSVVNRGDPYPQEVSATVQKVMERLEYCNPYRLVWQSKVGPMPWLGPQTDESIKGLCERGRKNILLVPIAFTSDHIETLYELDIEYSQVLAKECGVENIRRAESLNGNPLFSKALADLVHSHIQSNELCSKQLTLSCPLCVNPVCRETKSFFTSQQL
experiment-notes: FECH heme synthesis enzyme blockers – biochemical, purified FECH, Ni-mesoporphyrin absorbance, primary screen (AID 1671448)
stated-conditions: Ni-mesoporphyrin absorbance 550 nm, screened at 10 µM (by protocol)
Screen size: about 20,000 compounds; about 660 (3.3%) were called active.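 Rule for the calls: active = enzyme reaction rate more than 3 SD below the solvent-only control wells on the same plate; inactive = the rest.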 The full list was thinned out, with actives kept by preference.
Mark one answer only. Choices: label 1 for active, label 0 for inactive

These recorded examples may help you get a feel for the data.
- CCc1cc(-c2nccn2CCCc2nn[nH]n2)on1: label 0
- Cc1ccc(C(=O)Nc2nc3n(n2)C(c2ccccc2)C=C(c2ccc(Cl)cc2)N3)cc1 (stereo not drawn): label 0
- Cc1ccc(-c2cc(Nc3ccc(C(N)=O)cc3)nc(C)n2)cc1: label 0

q: Hi, do you know how O=C(CSc1nc(-c2ccco2)nc2cc(=O)[nH]n12)NCCCc1ccccc1 came out in this test?
a: label 0

q: Outcome? O=C1NC(c2cccnc2)(C2CCNCC2)C(=O)N1Cc1ccccc1F (stereo not drawn)
a: label 0

q: // return assay outcome for c1cc(CN2CCOCC2)cc(-c2ccc(NC3CCCC3)nn2)c1
a: label 1
